Data provenance: ChEMBL document CHEMBL4270646

protocol-details: Selectivity index, ratio of CC50 for human HepG2 cells to IC50 for GFP-expressing Plasmodium berghei sporozoites
Assay type: toxicity
measurement-context: read-out: Ratio CC50/IC50
endpoint-label: selectivity ratio
One number for each entry.

molecule="COc1cc(NC(C)CCCNC(=O)c2c(C)[n+]([O-])c3ccc(Cl)cc3[n+]2[O-])c2ncccc2c1 (configuration not stated)" endpoint_label="selectivity ratio" recorded_number=136
molecule="COc1cc(NC(C)CCCNC(=O)c2c(C)[n+]([O-])c3ccccc3[n+]2[O-])c2ncccc2c1 (configuration not stated)" endpoint_label="selectivity ratio" recorded_number=7.59
molecule=Cc1c(C(=O)NCCNc2ccnc3cc(Cl)ccc23)[n+]([O-])c2cc(Cl)ccc2[n+]1[O-] endpoint_label="selectivity ratio" recorded_number=2.15
molecule="COc1cc(NC(C)CCCN)c2ncccc2c1 (configuration not stated)" endpoint_label="selectivity ratio" recorded_number=33

Query block: Provide selectivity ratio value for the following molecule: COc1cc(NC(C)CCCNC(=O)c2c(C)[n+]([O-])c3ccc(C)cc3[n+]2[O-])c2ncccc2c1 (configuration not stated)
Result block: 17.3

---

protocol-details: Genotoxicity in Salmonella typhimurium TA1535 harboring pSK1002 assessed as umu gene induction at 0.001 to 0.063 mg/ml after 4 hrs in presence of Sprague-Dawley rat liver S9 fraction by beta-galactosidase reporter gene assay relative to control
Assay type: toxicity, organism-based
measurement-context: salmonella enterica subsp. enterica serovar typhimurium; read-out: FC
endpoint-label: fold induction at 4 h

Query block: Provide fold induction at 4 h value for the following molecule: COc1cc(NC(C)CCCNC(=O)c2c(C)[n+]([O-])c3ccccc3[n+]2[O-])c2ncccc2c1 (stereo unspecified)
Result block: < 2

---

Tested on: Plasmodium berghei
protocol-details: Antiplasmodial activity against GFP-harboring Plasmodium berghei sporozoites infected in human HepG2 cells assessed as reduction in parasite growth treated every 24 hrs by DAPI staining-based fluorescence microscopic analysis
Assay type: functional, organism-based
measurement-context: HepG2, 24 h
endpoint-label: log10 IC50 (log10 of the value in µM)
Each number you see is log10 of IC50, and the unit inside the log is µM.

Recorded log10 IC50, per entry:
molecule="COc1cc(NC(C)CCCNC(=O)c2c(C)[n+]([O-])c3cc(C)c(C)cc3[n+]2[O-])c2ncccc2c1 (configuration not stated)" subject_of_test="Plasmodium berghei" recorded_number=1.05
molecule="COc1cc(NC(C)CCCNC(=O)c2c(C)[n+]([O-])c3ccc(C)cc3[n+]2[O-])c2ncccc2c1 (configuration not stated)" subject_of_test="Plasmodium berghei" recorded_number=0.80
molecule=Cc1c(C(=O)NCCNc2ccnc3cc(Cl)ccc23)[n+]([O-])c2cc(Cl)ccc2[n+]1[O-] subject_of_test="Plasmodium berghei" recorded_number=1.00

Count: 4. Required value per item: log10 IC50.
1. COc1cc(NC(C)CCCN)c2ncccc2c1 (configuration not stated)
2. COc1cc(NC(C)CCCNC(=O)c2c(C)[n+]([O-])c3ccc(Cl)cc3[n+]2[O-])c2ncccc2c1 (configuration not stated)
3. COc1cc(NC(C)CCCNC(=O)c2c(C)[n+]([O-])c3ccccc3[n+]2[O-])c2ncccc2c1 (configuration not stated)
4. COc1cc(NC(C)CCCNC(=O)c2c(C)[n+]([O-])c3ccc(OC)cc3[n+]2[O-])c2ncccc2c1 (configuration not stated)

Result block:
1. 0.56
2. 0.06
3. 0.72
4. 1.15

---

protocol-details: Genotoxicity in Salmonella typhimurium TA1535 harboring pSK1002 assessed as bacterial survival at 0.001 to 0.063 mg/ml after 4 hrs in absence of Sprague-Dawley rat liver S9 fraction by SOS/umu assay relative to control
Format: toxicity, organism-based
measurement-context: salmonella enterica subsp. enterica serovar typhimurium; read-out: Survival
endpoint-label: viability at 4 h

Query block: Provide viability at 4 h value for the following compound: COc1cc(NC(C)CCCNC(=O)c2c(C)[n+]([O-])c3ccccc3[n+]2[O-])c2ncccc2c1 (stereo unspecified)
Result block: > 80%

---

Exercise: state measured IC50 for each of the compounds provided.
Test system: Plasmodium falciparum
protocol-details: Antiplasmodial activity against GFP-harboring Plasmodium falciparum sporozoites infected in human primary hepatocytes assessed as reduction in parasite growth treated every 24 hrs by DAPI staining-based fluorescence microscopic analysis
Type: functional, organism-based
Answer with the number, then the unit.

Count: 5. Required value per item: IC50.
1. COc1cc(NC(C)CCCNC(=O)c2c(C)[n+]([O-])c3ccccc3[n+]2[O-])c2ncccc2c1 (stereo not given)
2. COc1cc(NC(C)CCCNC(=O)c2c(C)[n+]([O-])c3ccc(C)cc3[n+]2[O-])c2ncccc2c1 (stereo not given)
3. COc1cc(NC(C)CCCNC(=O)c2c(C)[n+]([O-])c3cc(C)c(C)cc3[n+]2[O-])c2ncccc2c1 (stereo not given)
4. COc1cc(NC(C)CCCNC(=O)c2c(C)[n+]([O-])c3ccc(Cl)cc3[n+]2[O-])c2ncccc2c1 (stereo not given)
5. Cc1c(C(=O)NCCNc2ccnc3cc(Cl)ccc23)[n+]([O-])c2cc(Cl)ccc2[n+]1[O-]

Result block:
5.38 µM
7.21 µM
8.11 µM
3.64 µM
6.39 µM

---

protocol-details: Selectivity index, ratio of CC50 for human HepG2 cells to IC50 for multidrug-resistant Plasmodium falciparum […]
Format: toxicity
measurement-context: read-out: Ratio CC50/IC50
Categorize each record by its selectivity ratio using lo = under 3, mid = from 3 up to 50, hi = 50 and over

Query block: // return the class label for Cc1c(C(=O)NCCNc2ccnc3cc(Cl)ccc23)[n+]([O-])c2ccccc2[n+]1[O-]
Result block: mid

Query block: // return the class label for COc1cc(NC(C)CCCNC(=O)c2c(C)[n+]([O-])c3ccccc3[n+]2[O-])c2ncccc2c1 (stereo unspecified)
Result block: lo

Query block: // return the class label for COc1cc(NC(C)CCCN)c2ncccc2c1 (stereo unspecified)
Result block: hi

Query block: // return the class label for Cc1ccc2c(c1)[n+]([O-])c(C(=O)NCCNc1ccnc3cc(Cl)ccc13)c(C)[n+]2[O-]
Result block: mid

Query block: // return the class label for Cc1c(C(=O)NCCNc2ccnc3cc(Cl)ccc23)[n+]([O-])c2cc(Cl)ccc2[n+]1[O-]
Result block: hi

Query block: // return the class label for COc1ccc2c(c1)[n+]([O-])c(C(=O)NCCNc1ccnc3cc(Cl)ccc13)c(C)[n+]2[O-]
Result block: mid

Query block: // return the class label for Cc1cc2c(cc1C)[n+]([O-])c(C(=O)NCCNc1ccnc3cc(Cl)ccc13)c(C)[n+]2[O-]
Result block: hi

Query block: // return the class label for COc1cc(NC(C)CCCNC(=O)c2c(C)[n+]([O-])c3ccc(C)cc3[n+]2[O-])c2ncccc2c1 (stereo unspecified)
Result block: lo

Query block: // return the class label for COc1cc(NC(C)CCCNC(=O)c2c(C)[n+]([O-])c3ccc(Cl)cc3[n+]2[O-])c2ncccc2c1 (stereo unspecified)
Result block: mid

---

protocol-details: Cytotoxicity against human primary hepatocytes assessed as reduction in cell viability after 48 hrs by MTT assay
Format: cell-based, Hepatocyte
Exercise: state measured CC50 at 48 h for each of the compounds provided.

Recorded CC50 at 48 h, per entry:
compound="COc1cc(NC(C)CCCNC(=O)c2c(C)[n+]([O-])c3ccc(Cl)cc3[n+]2[O-])c2ncccc2c1 (stereo unspecified)" endpoint_label="CC50 at 48 h" result="> 198 µM"
compound="COc1cc(NC(C)CCCNC(=O)c2c(C)[n+]([O-])c3ccccc3[n+]2[O-])c2ncccc2c1 (stereo unspecified)" endpoint_label="CC50 at 48 h" result="> 213 µM"
compound="COc1cc(NC(C)CCCNC(=O)c2c(C)[n+]([O-])c3ccc(OC)cc3[n+]2[O-])c2ncccc2c1 (stereo unspecified)" endpoint_label="CC50 at 48 h" result="> 204 µM"
compound=Cc1c(C(=O)NCCNc2ccnc3cc(Cl)ccc23)[n+]([O-])c2cc(Cl)ccc2[n+]1[O-] endpoint_label="CC50 at 48 h" result="61.1 µM"
compound="COc1cc(NC(C)CCCNC(=O)c2c(C)[n+]([O-])c3ccc(C)cc3[n+]2[O-])c2ncccc2c1 (stereo unspecified)" endpoint_label="CC50 at 48 h" result="> 207 µM"

Consider now this further compound.
Query block: Provide CC50 at 48 h value for the following compound: COc1cc(NC(C)CCCNC(=O)c2c(C)[n+]([O-])c3cc(C)c(C)cc3[n+]2[O-])c2ncccc2c1 (stereo unspecified)
Result block: > 202 µM

---

protocol-details: Cytotoxicity against human HepG2 cells assessed as reduction in cell viability after 48 hrs by MTT assay
Assay type: cell-based
Exercise: state measured CC50 at 48 h for each of the molecules provided.
One number for each entry, in µM.

molecule=Cc1cc2c(cc1C)[n+]([O-])c(C(=O)NCCNc1ccnc3cc(Cl)ccc13)c(C)[n+]2[O-] recorded_number=64.5

Count: 2. Required value per item: CC50 at 48 h.
1. COc1cc(NC(C)CCCNC(=O)c2c(C)[n+]([O-])c3ccc(C)cc3[n+]2[O-])c2ncccc2c1 (configuration not stated)
2. Cc1c(C(=O)NCCNc2ccnc3cc(Cl)ccc23)[n+]([O-])c2ccccc2[n+]1[O-]

Result block:
1: 110; 2: 58.2
